B1: tRNA (parent)
chain: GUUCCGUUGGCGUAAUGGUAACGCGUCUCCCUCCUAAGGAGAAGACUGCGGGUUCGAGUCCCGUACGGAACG

Variants of: B1
methodSummary: yeast fitness relative to wild type (ratio to wild type); higher = fitter; tRNA-Arg(CCU), competitive growth, 37 C, YPD
Fewer inactive variants are shown than the library holds.
assayMetric: yeast fitness
Hey, just send me the number, nothing else.

INSERT INTO measurements (variant, recordednumber) VALUES
  ('U32C A40U A69C', 0.747),
  ('A40C G56C', 0.609),
  ('G39C A45G', 0.661);

(Q) Bench note: what yeast fitness did U7G G23C C30G A36U C61U A65U show?
(A) 0.527

(Q) Bench note: what yeast fitness did A20U U32A C66U show?
(A) 0.554

(Q) Bench note: what yeast fitness did A36G A70U show?
(A) 0.832

(Q) Bench note: what yeast fitness did C22U G51C C61G A70C show?
(A) 0.514
